Experimental endpoint: melting point

[
  {
    "Molecule": "CN(CCc1ccccc1)C(=O)C(O)C(O)c1ccccc1 (stereo not given)",
    "Experimental endpoint": "melting point",
    "Result": "145 to 147 °C"
  },
  {
    "Molecule": "CCOC(=O)C(=CNc1cccnc1OC)C(=O)OCC",
    "Experimental endpoint": "melting point",
    "Result": "65 °C"
  },
  {
    "Molecule": "CCOC(=O)CCCOc1ccc(S(=O)(=O)n2c(=O)[nH]c3cc(Cl)ccc3c2=O)cc1",
    "Experimental endpoint": "melting point",
    "Result": "167 to 169 °C"
  },
  {
    "Molecule": "CC(C)(C)OC(=O)Nc1ccc(-c2cccc3ccccc23)cc1[N+](=O)[O-]",
    "Experimental endpoint": "melting point",
    "Result": "60 to 66 °C"
  },
  {
    "Molecule": "N#Cc1ccc2[nH]cc(C3CCC(=O)CC3)c2c1",
    "Experimental endpoint": "melting point",
    "Result": "162 to 164 °C"
  },
  {
    "Molecule": "CCOC(=O)C1(CC(=O)O)C(=O)N(Cc2ccc(Br)cc2F)C(=O)c2cccn21 (stereo not given)",
    "Experimental endpoint": "melting point",
    "Result": "142 to 144 °C"
  },
  {
    "Molecule": "CC(C)c1c(C=C(Cl)Cl)c(-c2ccc(F)cc2)c2n1CCCC2",
    "Experimental endpoint": "melting point",
    "Result": "118 to 120 °C"
  },
  {
    "Molecule": "CCSC1OC(CO)C(OC2OC(CO)C(O)C(O)C2O)C(O)C1O (stereo not given)",
    "Experimental endpoint": "melting point",
    "Result": "191 to 192 °C"
  },
  {
    "Molecule": "CN(C)C1(c2cccc(F)c2)CCC(CC(=O)NCCCc2ccccc2)CC1 (stereo not given)",
    "Experimental endpoint": "melting point",
    "Result": "119 to 122 °C"
  }
]

Find the recorded melting point belonging to `COc1cc(OC)nc(NC(=O)NS(=O)(=O)c2ncccc2OCCCl)n1` and report it.
156 to 158 °C
